Could you please report measured Mean % WT Binding for the items listed next?
Target: human CD33 variant Y50V (human, UniProt P20138 18-364)
Sequence (P20138 18-364 Y50V limits assumed): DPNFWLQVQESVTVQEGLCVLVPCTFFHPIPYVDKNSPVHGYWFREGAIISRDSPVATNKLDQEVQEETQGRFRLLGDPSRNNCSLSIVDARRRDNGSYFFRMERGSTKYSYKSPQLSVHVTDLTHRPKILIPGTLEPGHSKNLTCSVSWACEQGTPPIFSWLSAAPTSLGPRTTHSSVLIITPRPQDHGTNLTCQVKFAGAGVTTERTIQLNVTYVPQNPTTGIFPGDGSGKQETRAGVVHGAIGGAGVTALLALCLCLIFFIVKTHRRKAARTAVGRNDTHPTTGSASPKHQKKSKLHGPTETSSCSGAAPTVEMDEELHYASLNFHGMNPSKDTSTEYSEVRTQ
Assay: flow cytometry, IgG on cells expressing the mutant

• Refmab #2 (antibody, human IgG1, V domains shown, Tested in IgG format; human IgG1 Fc silent (PG-LALA)) VH: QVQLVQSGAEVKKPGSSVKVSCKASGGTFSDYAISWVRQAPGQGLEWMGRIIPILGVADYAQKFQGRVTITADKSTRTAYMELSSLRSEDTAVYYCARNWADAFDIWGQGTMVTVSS VL: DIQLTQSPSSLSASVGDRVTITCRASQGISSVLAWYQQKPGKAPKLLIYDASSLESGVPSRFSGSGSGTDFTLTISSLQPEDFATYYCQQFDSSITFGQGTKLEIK = 126 % of WT
• Refmab #4 (antibody, human IgG1, V domains shown, Tested in IgG format; human IgG1 Fc silent (PG-LALA)) VH: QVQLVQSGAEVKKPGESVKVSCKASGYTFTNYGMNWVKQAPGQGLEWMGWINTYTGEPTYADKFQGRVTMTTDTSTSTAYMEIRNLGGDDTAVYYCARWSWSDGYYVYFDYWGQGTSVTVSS VL: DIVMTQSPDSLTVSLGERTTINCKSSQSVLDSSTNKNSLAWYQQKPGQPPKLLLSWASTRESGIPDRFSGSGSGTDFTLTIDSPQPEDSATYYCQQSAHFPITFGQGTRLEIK = 1.7 % of WT
• Refmab #3 (antibody, human IgG1, V domains shown, Tested in IgG format; human IgG1 Fc silent (PG-LALA)) VH: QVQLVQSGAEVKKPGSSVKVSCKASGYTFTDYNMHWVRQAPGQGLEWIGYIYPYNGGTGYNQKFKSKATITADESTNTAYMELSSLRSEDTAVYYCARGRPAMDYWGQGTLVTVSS VL: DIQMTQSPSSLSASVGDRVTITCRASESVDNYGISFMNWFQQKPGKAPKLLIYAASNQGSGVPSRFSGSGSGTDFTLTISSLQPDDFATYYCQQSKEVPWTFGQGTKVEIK = 108 % of WT

Next, consider the following binder.
Task item: Give recorded Mean % WT Binding. Refmab #1 (antibody, human IgG1, V domains shown, Tested in IgG format; human IgG1 (Absolute Antibody hP67.6, Cat. No. Ab00283-10.0); also called hP67.6) VH: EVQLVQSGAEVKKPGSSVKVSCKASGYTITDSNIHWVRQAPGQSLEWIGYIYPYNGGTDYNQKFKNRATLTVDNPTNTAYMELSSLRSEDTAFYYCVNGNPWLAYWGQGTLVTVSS VL: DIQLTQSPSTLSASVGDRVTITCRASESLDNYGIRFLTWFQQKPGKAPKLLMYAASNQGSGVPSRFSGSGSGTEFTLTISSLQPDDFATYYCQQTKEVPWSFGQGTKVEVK
Reply: 94.9 % of WT
